Test system: P12-Ichikawa
Test: cell viability relative to DMSO control; higher = less cytotoxic
Conditions: HPLM + 10% dialyzed FBS; 48 h; 0.00702 µM
measurement kind: cell viability
Answer with the number, then the unit.

The examples below pair each entry with its known result.
CO[C@@]12[C@H](COC(N)=O)C/3=C(N1C[C@@H]4N[C@H]24)/C(=O)/C(=C(N)\C3=O)C : 125%
[O-]C(=O)C/1=N/C(=O)NC(=O)N1 : 98.3%
OC1=CC=C(C=C1)\C2=C\OC3=C(C(=CC(=C3)O)O)C2=O : 112%
N[C@H]2CN(CC12CC1)c3c(F)cc4c(c3Cl)[N@@](C=C(C4=O)C(=O)O)C5C[C@H]5F (stereo partly specified) : 101%
CC(C)=CCC/C(C)=C/CC/C(C)=C/CC/C(C)=C/CC/C(C)=C/CC/C(C)=C/CC/C(C)=C/CC/C(C)=C/CC/C(C)=C/CO : 108%

Below: the item to evaluate.
Missing value: cell viability, P12-Ichikawa, entry Cc1c(-c2cccc3c(CCCOc4cccc5ccccc45)c(C(=O)O)n(Cc4cccnc4)c23)c(COc2ccc(N3CCN([S+](=O)([O-])N(C)C)CC3)cc2)nn1C . Fill in?
87.4%

---

Test system: SEM cells
Experiment: cell viability relative to DMSO control; higher = less cytotoxic
Details: RPMI 5 mM glucose + 10% dialyzed FBS; 48 h; 0.569 µM
Entries and their cell viability
Expressed in %, but write only the number.

Worked set:
CCC(C)N1\N=C/N(C1=O)C2=CC=C(C=C2)N3CCN(CC3)C4=CC=C(OC[C@H]5CO[C@@](C[N]6C=NC=N6)(O5)C7=CC=C(Cl)C=C7Cl)C=C4 (stereo partly drawn) : 109
O=C(CCc1ccc(O)cc1)c1c(O)cc(O)cc1O : 88.1

Now look at this one.
Lab note: need cell viability with SEM cells for entry O=C1CCC[C@@H]2[C@H]3CCCN4CCC[C@@H](CN12)[C@@H]34 , please look it up.
77.6

---

Quick reference: cell viability of the listed items.
System: P12-Ichikawa
Experiment: cell viability relative to DMSO control; higher = less cytotoxic
Details: RPMI 5 mM glucose + 10% dialyzed FBS; 48 h; 1.71 µM
Numbers only here, please. The scale is %.

Look over these answered cases.
CCC(C)N1\N=C/N(C1=O)C2=CC=C(C=C2)N3CCN(CC3)C4=CC=C(OC[C@H]5CO[C@@](C[N]6C=NC=N6)(O5)C7=CC=C(Cl)C=C7Cl)C=C4 (stereo partly specified) : 105
OC[C@H]1O[C@H](C[C@@H]1O)N2\C=C(F)/C(=O)NC2=O : 30.3
CCOc1cc2ncc(C#N)c(Nc3ccc(OCc4ccccn4)c(Cl)c3)c2cc1NC(=O)/C=C/CN(C)C : 13.5
CC[N+](CC)(CC)CCOc1cccc(OCC[N+](CC)(CC)CC)c1OCC[N+](CC)(CC)CC : 104
CCn1c(-c2nonc2N)nc2c(C#CC(C)(C)O)ncc(OC[C@H]3CCCNC3)c21 : 56.6

Next up:
# returns recorded cell viability (system: P12-Ichikawa) for CC[C@]12CC[C@H]3[C@@H](CCC/4=C/C(=O)CC[C@H]34)[C@@H]1CC[C@@]2(O)C#C
77

---

Tested on: SEM cells
Assay: AUC of viability dose-response curve (% viability x log10 dose units); higher = less sensitive
Conditions: RPMI 5 mM glucose + 10% dialyzed FBS; 48 h
compounds and their reported AUC of viability dose-response curve
Answer using only a numeral; do not append any unit.

Examples with their reported AUC of viability dose-response curve follow.
O=C(NCCCCN1CCOCC1)c1cc2ccccc2o1 : 457
C[C@H](NCc1ccc2c(c1)nc(NC(=O)c1ccc(-c3cn[nH]c3)s1)n2CCc1ccccc1)C(C)(C)C : 224
CC(C)(O)CCc1ccc(OCc2cc(-c3cccc(OC(F)F)c3)c3ncccc3c2)cc1 : 469

I would be grateful if you could share the reported AUC of viability dose-response curve for COc1ccc(COc2cc3oc(=O)c4cc(C(C)O)ccc4c3cc2OC)cc1 (centres undefined) .
461

---

System: P12-Ichikawa
Experiment: AUC of viability dose-response curve (% viability x log10 dose units); higher = less sensitive
Settings: RPMI 5 mM glucose + 10% dialyzed FBS; 48 h
measurement kind: AUC of viability dose-response curve
Answer with a bare number; do not write a unit.

Entry under review: N[S+](=O)([O-])c1cc2c(cc1Cl)NC(C(Cl)Cl)N[S+]2(=O)[O-] (stereo not drawn) . Reported AUC of viability dose-response curve?
467

Now the same for CCN(CCO)CCCOc1ccc2c(Nc3cc(CC(=O)Nc4cccc(F)c4)[nH]n3)ncnc2c1
287

And what about the compound O=C(N[C@@H](c1ccccc1)[C@@H]1CCCCN1)c1cccc(C(F)(F)F)c1Cl ?
464

Moving on to O=C(NCCCCN1CCOCC1)c1cc2ccccc2o1
448

Next compound up: Cc1ccc([N+](=O)[O-])cc1[S+](=O)([O-])N(C)/N=C/c1cnc2ccc(Br)cn12
244

Moving on to CC1(CN2CCC(n3c(=O)[nH]c4ccccc43)CC2)OCc2ccccc2-n2cccc21 (stereo not drawn)
458

Follow-up entry: C[C@]12Cc3cn[nH]c3C[C@@H]1CC[C@@H]1[C@@H]2CC[C@@]2(C)[C@H]1CC[C@]2(C)O
463

Follow-up item: CC(NC(C)(C)C)C(=O)c1cccc(Cl)c1 (stereo not drawn)
472

---

cell viability: recorded values
Test system: NOMO1
Experiment: cell viability relative to DMSO control; higher = less cytotoxic
Conditions: RPMI 5 mM glucose + 10% FBS; 48 h; 0.0632 µM
Respond with the bare value in %.

Known cell viability results, listed for orientation:
O=C(CC12CC3CC(CC(C3)C1)C2)Nc1cccc2nc(NCCNCCO)ccc12 : 82.4
CN1CCN(c2c(F)cc3c(=O)c(C(=O)O)cn(CCF)c3c2F)CC1 : 122
NC(=O)Nc1sc(-c2ccc(F)cc2)cc1C(N)=O : 113
CCOc1cc2ncc(C#N)c(Nc3ccc(F)c(Cl)c3)c2cc1NC(=O)/C=C/CN(C)C : 123
[O-]C(=O)C/1=N/C(=O)NC(=O)N1 : 92.8
O=C1CCC[C@@H]2[C@H]3CCCN4CCC[C@@H](CN12)[C@@H]34 : 85.2
CCN(CC)CCOc1ccc(Cc2ccccc2)cc1 : 102
CCOC(=O)C(C#N)C\1C2=CC(=CC=C2O\C(=C1C(=O)OCC)N)Br (centres undefined) : 99.3

What value of cell viability has been reported for the following compound? CC(C)=CCC/C(C)=C/CC/C(C)=C/CSc1ccccc1C(=O)O
96.1

---

Each entry below lists one item and its recorded cell viability value.
System: SEM cells
Assay: cell viability relative to DMSO control; higher = less cytotoxic
Settings: HPLM + 10% dialyzed FBS; 48 h; 0.19 µM
Use % as the unit, but write only the number.

The cases that follow already have their cell viability on record.
CCC(C)N1\N=C/N(C1=O)C2=CC=C(C=C2)N3CCN(CC3)C4=CC=C(OC[C@H]5CO[C@@](C[N]6C=NC=N6)(O5)C7=CC=C(Cl)C=C7Cl)C=C4 (some centres undefined) : 124
CCC[S+](=O)([O-])Nc1ccc(F)c(C(=O)c2c[nH]c3ncc(Cl)cc23)c1F : 121
CCOc1cc2ncc(C#N)c(Nc3ccc(OCc4ccccn4)c(Cl)c3)c2cc1NC(=O)/C=C/CN(C)C : 107
N\C1=N\C2=C(N=C[N]2COCCO)C(=O)N1 : 99.7
CC(C)=CCC/C(C)=C/CC/C(C)=C/CSc1ccccc1C(=O)O : 81.2
CC(=O)N[C@@H]1[C@@H](NC(N)=N)\C=C(/O[C@H]1[C@H](O)[C@H](O)CO)C(O)=O : 123

Look up cell viability for this compound: O=C(CC12CC3CC(CC(C3)C1)C2)Nc1cccc2nc(NCCNCCO)ccc12
77.8

Can you handle OC1=CC2=C(C=C1)C(=O)\C(=C(O2)\C3=CC(=C(O)C=C3)O)O next?
99.5

// next record O=C1\C=C/C=C2/[C@H]3CNC[C@H](C3)CN12
106

---

Tested on: SEM cells
Experiment: cell viability relative to DMSO control; higher = less cytotoxic
Conditions: HPLM + 10% dialyzed FBS; 48 h; 46.1 µM
A collection of molecules and their measured cell viability
Please respond with the number in % and leave the unit unwritten.

// worked examples, cell viability included
C[C@]12Cc3cn[nH]c3C[C@@H]1CC[C@@H]1[C@@H]2CC[C@@]2(C)[C@H]1CC[C@]2(C)O : 88.1
CC(C)(F)C[C@H](N[C@@H](c1ccc(-c2ccc([S+](C)(=O)[O-])cc2)cc1)C(F)(F)F)C(=O)NC1(C#N)CC1 : 91.6
Cc1nc2cc(C(=O)N3CCC4(CC3)CC(=O)c3c(cnn3C(C)C)C4)ccc2[nH]1 : 109
OC1=CC2=C(C=C1)C(=O)\C(=C(O2)\C3=CC(=C(O)C=C3)O)O : 32.9
C[N]1C=C(C2=CC=CC=C12)\C3=C(\C(=O)NC3=O)C4=C[N](C5CCN(CC5)CC6=NC=CC=C6)C7=C4C=CC=C7 : 109
COc1cc(Nc2c(C#N)cnc3cc(OCCCN4CCN(C)CC4)c(OC)cc23)c(Cl)cc1Cl : 6.12

Item under review: CC\12CCC(=O)\C=C1CCC3C2CCC4(C)C3CCC4(O)C#C (stereo not given) . Reported cell viability?
90.5

And what about the molecule NC(=O)Nc1sc(-c2ccc(F)cc2)cc1C(N)=O ?
18.3

// repeat for CCc1cc2c(cc1N1CCC(N3CCOCC3)CC1)C(C)(C)c1[nH]c3cc(C#N)ccc3c1C2=O and report
28.1

And for N[C@H]2CN(CC12CC1)c3c(F)cc4c(c3Cl)[N@@](C=C(C4=O)C(=O)O)C5C[C@H]5F (stereo not given in full) ?
84.6

Sourced from the supplement of paper PMC11451515
